assay: Cytotoxicity against rat C6 cells assessed as cell viability at 20 uM after 24 hrs by MTT assay relative to control; assay type: cell-based; details: read-out: Activity

Structure notation: O=C1C=C2C=C[C@@H]3C[C@@]2(O1)[C@@H]1CCC(=O)C(=O)N31
viability at 24 h, 20 µM (%): 101
--
Structure notation: CCCCC/C=C/C(=O)CCc1ccc(O)c(OC)c1
viability at 24 h, 20 µM (%): 112
--
Structure notation: O=C1C=C2C=C[C@@H]3C[C@@]2(O1)[C@H]1CCCCN31
viability at 24 h, 20 µM (%): 102
--
Structure notation: O=C1C=C2C=C[C@@H]3C[C@@]2(O1)[C@@H]1[C@H]2O[C@H]2CCN31
viability at 24 h, 20 µM (%): 101

Origin of measurements: ChEMBL document CHEMBL4316661
